molecular target: EPHB1 (UniProt P54762); test: phosphorylation enrichment, bacterial display (enrichment ratio); higher = better substrate or ligand; peptides without Tyr show the background;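 note: 11-residue human phosphosite peptides and single-mutation variants displayed on the E. coli surface, counted by deep sequencing, each peptide's frequency after selection divided by its frequency in the unselected input library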;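 note: frequency after pTyr selection over input frequency; kinase dosed for 20-30% of maximal phosphorylation in three min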
Sequence (P54762 whole entry, looked up): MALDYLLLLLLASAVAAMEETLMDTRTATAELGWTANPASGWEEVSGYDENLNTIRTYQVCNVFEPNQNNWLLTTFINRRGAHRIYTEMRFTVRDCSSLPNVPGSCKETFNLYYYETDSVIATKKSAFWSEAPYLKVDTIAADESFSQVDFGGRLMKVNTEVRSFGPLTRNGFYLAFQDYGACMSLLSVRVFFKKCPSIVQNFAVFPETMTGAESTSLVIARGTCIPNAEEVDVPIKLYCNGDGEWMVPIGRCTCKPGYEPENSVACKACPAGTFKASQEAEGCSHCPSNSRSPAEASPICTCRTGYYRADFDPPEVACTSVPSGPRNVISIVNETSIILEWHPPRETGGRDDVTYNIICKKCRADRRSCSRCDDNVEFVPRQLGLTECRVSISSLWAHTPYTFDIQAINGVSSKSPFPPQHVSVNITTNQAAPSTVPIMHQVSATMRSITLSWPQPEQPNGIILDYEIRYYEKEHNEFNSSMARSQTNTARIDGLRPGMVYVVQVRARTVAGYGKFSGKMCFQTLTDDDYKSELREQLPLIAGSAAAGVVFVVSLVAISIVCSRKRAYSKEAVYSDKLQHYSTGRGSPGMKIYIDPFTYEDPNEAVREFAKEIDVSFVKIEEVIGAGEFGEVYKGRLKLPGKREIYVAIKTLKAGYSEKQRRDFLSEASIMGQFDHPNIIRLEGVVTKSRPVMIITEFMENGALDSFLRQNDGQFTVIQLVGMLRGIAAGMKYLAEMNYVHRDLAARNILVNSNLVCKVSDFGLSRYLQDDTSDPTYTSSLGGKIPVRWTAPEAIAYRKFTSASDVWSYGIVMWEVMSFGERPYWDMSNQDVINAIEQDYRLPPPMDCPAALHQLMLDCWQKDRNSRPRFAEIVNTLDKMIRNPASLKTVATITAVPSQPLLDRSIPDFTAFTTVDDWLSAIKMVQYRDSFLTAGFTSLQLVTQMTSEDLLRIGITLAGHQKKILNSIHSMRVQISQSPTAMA

{"columns": ["ENTRY SEQUENCE", "SYSTEM UNDER TEST", "phosphorylation enrichment"],
 "data": [
  ["PGGKIYISPLK [RB1_Y805_N803K]", "EPHB1 (UniProt P54762)", 0.361],
  ["LEHCQYVTEKV [ALDOB_Y204]", "EPHB1 (UniProt P54762)", 1.74],
  ["GKMSQYLESMQ [CYB5R3_Y130]", "EPHB1 (UniProt P54762)", 0.336],
  ["SVQVEYMKTIL [GLYATL2_Y127_D126E]", "EPHB1 (UniProt P54762)", 0.41],
  ["TSSGGYRRTPS [ABI1_Y333]", "EPHB1 (UniProt P54762)", 0.355],
  ["QDIMAYRGREV [BCL6_Y157]", "EPHB1 (UniProt P54762)", 0.52],
  ["CTHDLYMFMRE [FGFR3_Y724_I726F]", "EPHB1 (UniProt P54762)", 2.23],
  ["VSTAVYKRFAS [BEST1_Y148_P152A]", "EPHB1 (UniProt P54762)", 0.693],
  ["EVEPRYVVLFD [ERCC4_Y577_YF]", "EPHB1 (UniProt P54762)", 3.47],
  ["LSSISYVGCSL [ADGRD1_Y571]", "EPHB1 (UniProt P54762)", 0.76],
  ["EAESWYQTKFE [KRT75_Y342_YF]", "EPHB1 (UniProt P54762)", 0.721],
  ["YETDYYQKGGK [INSR_Y1190_R1191Q]", "EPHB1 (UniProt P54762)", 0.63],
  ["LNWIYYKDQTG [RS1_Y166]", "EPHB1 (UniProt P54762)", 1.58],
  ["LRYDVYGGENE [STOX1_Y610_E608D]", "EPHB1 (UniProt P54762)", 1.82]
]}

----------
target: FGFR1 (UniProt P11362); assay: phosphorylation enrichment, bacterial display (enrichment ratio); higher = better substrate or ligand; peptides without Tyr show the background
Sequence (P11362 whole entry, looked up): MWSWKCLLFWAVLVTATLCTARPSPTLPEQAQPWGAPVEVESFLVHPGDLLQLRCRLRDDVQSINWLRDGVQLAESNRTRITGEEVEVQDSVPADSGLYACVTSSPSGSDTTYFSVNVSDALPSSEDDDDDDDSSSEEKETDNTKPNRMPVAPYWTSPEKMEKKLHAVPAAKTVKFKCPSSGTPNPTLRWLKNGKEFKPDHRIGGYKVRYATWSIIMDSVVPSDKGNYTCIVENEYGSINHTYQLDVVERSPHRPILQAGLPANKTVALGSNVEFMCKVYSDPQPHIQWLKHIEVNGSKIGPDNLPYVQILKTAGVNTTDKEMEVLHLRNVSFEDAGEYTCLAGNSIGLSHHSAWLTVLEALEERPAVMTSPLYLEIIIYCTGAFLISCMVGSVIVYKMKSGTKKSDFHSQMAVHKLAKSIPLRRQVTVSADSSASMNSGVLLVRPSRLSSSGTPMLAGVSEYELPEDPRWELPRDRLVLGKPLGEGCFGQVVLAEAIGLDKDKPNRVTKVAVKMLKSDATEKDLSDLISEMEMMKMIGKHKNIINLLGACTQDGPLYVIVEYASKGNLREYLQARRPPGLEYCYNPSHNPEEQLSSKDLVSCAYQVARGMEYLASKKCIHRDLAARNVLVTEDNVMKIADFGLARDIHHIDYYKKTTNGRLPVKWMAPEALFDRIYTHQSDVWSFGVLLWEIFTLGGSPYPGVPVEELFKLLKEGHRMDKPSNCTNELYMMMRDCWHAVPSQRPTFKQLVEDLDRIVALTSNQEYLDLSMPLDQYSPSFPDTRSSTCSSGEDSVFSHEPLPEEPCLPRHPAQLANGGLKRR
phosphorylation enrichment of 0.5 or higher: label 1. Under 0.5: label 0.

{"columns": ["ENTRY SEQUENCE", "GROUP"],
 "data": [
  ["EFISESCGEII [EZH2_Y641_Y641S]", "label 1"],
  ["PTQLPYDHKWK [KIT_Y578_E583K]", "label 1"],
  ["FIPSNYVAEDR [FRK_Y104_YF]", "label 0"],
  ["NQKGKYFNVER [ANAPC4_Y469_R465Q]", "label 0"],
  ["GCRSKYVGLWG [KCNQ1_Y184]", "label 0"],
  ["SADIAYNYRHG [PAH_Y166_F161S]", "label 0"],
  ["KFLVGYEMLAQ [GALT_Y339_M336L]", "label 0"],
  ["HYPDVYAREQL [ALX3_Y181]", "label 1"],
  ["LLVVVYKYRCY [PSEN1_Y154_L153V]", "label 1"],
  ["EKLQQYLAPGM [EPHB3_Y600_I601L]", "label 0"],
  ["KTGNIYRTEFG [MRPL3_Y265_M261T_YF]", "label 1"],
  ["KVDKEYEVGVR [GHR_Y226_R229G]", "label 0"],
  ["PEAALYGRFTI [FYN_Y440]", "label 1"],
  ["KNKNRYKNILP [PTPN11_Y279]", "label 1"],
  ["FQRITYHNWRH [PDE6B_Y556_R552Q_YF]", "label 0"],
  ["RVVVPYEPPEV [TP53_Y220_S215R]", "label 1"],
  ["EARRVYRDIIH [ALDH5A1_Y175_G176R]", "label 0"],
  ["LSGVIYVILGK [PMP22_Y153_R157G]", "label 1"],
  ["RFLERYIFNRQ [HLA-DPB1_Y57_E62Q_YF]", "label 0"],
  ["PIQLFYTRRNT [GHR_Y86]", "label 1"],
  ["NFHRGYHLQVL [CD200R1L_Y138]", "label 0"],
  ["RRMLQYLTVND [PPFIBP2_Y663]", "label 1"],
  ["FPCSVYVPDEW [INSR_Y1011]", "label 1"],
  ["SKAYAYVHFDS [PABPC5_Y149_G146A]", "label 0"],
  ["CASQLYPRHKH [DCTN4_Y263]", "label 1"],
  ["GIVEDYRPPFY [ACVRL1_Y421]", "label 0"]
]}
